Exercise: for every item that follows, state its recorded % inhibition.
Test system: human Factor 11 mRNA
Test: Antisense inhibition of human Factor 11 in HepG2 cells by microwalk gapmers, lipofectin, 75 nM (Example 3)
Format: cell-based
Details: HepG2 cells, lipofectin, gapmers targeted to nucleobases 1062 to 1091 of SEQ ID NO: 1
Strand notation (5' to 3'): a small letter for the sugar, then the base; units joined by * are phosphorothioate-linked, units joined directly phosphodiester-linked; [ ] holds rarer units or linkages, { } end groups; capitals alone tell only the bases. e = 2'-O-(2-methoxyethyl) (MOE); [5mC] = 5-methylcytosine; d = 2'-deoxy (DNA)
Give bare numbers, in %.

The examples below pair each entry with its known result.
Ask: % inhibition for 416987 (antisense eG*eA*dT*dT*d[5mC]*dT*dT*dT*dG*dG*dG*d[5mC]*d[5mC]*dA*dT*eT*e[5mC]*e[5mC]*eT*eG) [compound 416987] ?
Reply: 80

Ask: Repeat with 412215 (antisense eA*eT*eT*e[5mC]*eT*dT*dT*dG*dG*dG*d[5mC]*d[5mC]*dA*dT*dT*e[5mC]*e[5mC]*eT*eG*eG) [compound 412215]
Reply: 82

Ask: Also 416993 (antisense e[5mC]*eT*dT*dT*dG*dA*dG*dA*dT*dT*d[5mC]*dT*dT*dT*dG*eG*eG*e[5mC]*e[5mC]*eA) [compound 416993] , if possible.
Reply: 91

Ask: What do you get for 416843 (antisense eT*eT*eT*eG*eA*dG*dA*dT*dT*d[5mC]*dT*dT*dT*dG*dG*eG*e[5mC]*e[5mC]*eA*eT) [compound 416843] ?
Reply: 89

Give me % inhibition for each of these substances, listed below.
1. 416996 (antisense eT*eT*dT*d[5mC]*dT*dT*dT*dG*dA*dG*dA*dT*dT*d[5mC]*dT*eT*eT*eG*eG*eG) [compound 416996]
2. 416919 (antisense eT*eT*eT*d[5mC]*dT*dT*dT*dG*dA*dG*dA*dT*dT*d[5mC]*dT*dT*dT*eG*eG*eG) [compound 416919]
3. 416839 (antisense eG*eA*eT*eT*e[5mC]*dT*dT*dT*dG*dG*dG*d[5mC]*d[5mC]*dA*dT*eT*e[5mC]*e[5mC]*eT*eG) [compound 416839]
4. 416847 (antisense eT*eT*eT*e[5mC]*eT*dT*dT*dG*dA*dG*dA*dT*dT*d[5mC]*dT*eT*eT*eG*eG*eG) [compound 416847]

Reply:
1: 22; 2: 27; 3: 89; 4: 50
